Known RP-LC retention time of a selection of compounds
- Assay notes: gradient 5% acetonitrile 3 min, to 50% in 2 min, to 85% in 15 min, held 3 min, 100 µL/min
- Conditions: column: Zorbax Extend-C18 2.1 x 50 mm; eluents: water / acetonitrile, 0.1% formic acid
Property label: RP-LC retention time (s)

>>> df
                                    compound  measurement
 0  O=C(CN1C(=O)CCS(=O)(=O)c2ccccc21)NCCc1ccccc1          745
 1  CCOC(=O)C1CCc2sc(NC(=O)CCn3cnc4ccccc4c3=O)nc21 (stereo not given)          690
 2             NC(=O)c1ncn2c(=O)n(CCCl)nnc12          645
 3  Cc1ccc(NC(=O)CSc2nc(N3CCCCC3)nc3ccccc23)cc1C          795
 4       COCc1ncc(C)n1CC1CN(C(=O)c2cccn2C)C1          585
 5  COc1ccc(-c2c(C)noc2NC(C)=O)cc1S(=O)(=O)N1CCCC1          673
 6  Cc1nnc(-c2ccc3ccn(CC(=O)Nc4cccc(F)c4)c3c2)o1          808
 7  COc1cccc(CNC(=O)CN2C(=O)CSc3cccn3-c3ccccc32)c1          846
 8  Cc1ccc(-c2nc(-c3ccc4nnc(C)n4c3)no2)c(C)c1         1140
 9  Cc1ccc(Nc2c(-c3ccc(Cl)cc3)nc3nc(C)cc(C)n23)cc1          827
10  CCn1c(=O)oc2cc(-c3noc(-c4ccc(C)cc4)n3)ccc21         1060
11  CCOC(=O)Cc1csc(NC(=O)CSc2nc(C)nc3sc4c(c23)CCC4)n1          998
12  O=C(Nc1ccc(Cl)cc1)N1CCN(CCn2cnc3cccnc32)CC1          604
13  Cc1nn(C(C)C(=O)Nc2ccc(F)cc2F)c(=O)c2c(-n3cccc3)n(-c3ccccc3)nc12 (stereo not given)         1100
14        Cc1ncc2c(n1)CCCN(CC(=O)NC1CC1)C2=O          567
15  COc1ccc(-c2nc3cccnc3n2C2CCN(C(=O)Nc3cccc(OC)c3)C2)cc1 (stereo not given)          746
16  CCOc1ccccc1NC(=O)Cn1ncc2c(c1=O)N(C1CC1)C(=O)CS2          775
17  Cc1c(C(=O)NCCCN2CCCCC2)oc2ccc3c(c12)C(O)CC(C)(C)O3 (stereo not given)          631
18  CCCCN(C)S(=O)(=O)c1cc(-c2nc(C)cs2)n(CC(=O)N2CCCCC2)c1         1080
19       CC(C)n1cnc2cc(CNC(=O)c3ccccn3)ccc21          590

These measurements were taken from the METLIN SMRT retention time set (Domingo-Almenara et al. 2019).
